molecular target: Menin-MLL (Homo sapiens, UniProt O00255); construct: His-Menin (M1-L615 end); purchased BIORTUS BP9210; assay: Inhibitory activity against Menin-MLL binding (fluorescence polarization); conditions: fluorescence polarization; 150 nM His-Menin, 15 nM FITC-MLL; 25°C for 60 min; read-out: Menin-MLL IC50
Sequence (O00255 1-615 isoform O00255-1): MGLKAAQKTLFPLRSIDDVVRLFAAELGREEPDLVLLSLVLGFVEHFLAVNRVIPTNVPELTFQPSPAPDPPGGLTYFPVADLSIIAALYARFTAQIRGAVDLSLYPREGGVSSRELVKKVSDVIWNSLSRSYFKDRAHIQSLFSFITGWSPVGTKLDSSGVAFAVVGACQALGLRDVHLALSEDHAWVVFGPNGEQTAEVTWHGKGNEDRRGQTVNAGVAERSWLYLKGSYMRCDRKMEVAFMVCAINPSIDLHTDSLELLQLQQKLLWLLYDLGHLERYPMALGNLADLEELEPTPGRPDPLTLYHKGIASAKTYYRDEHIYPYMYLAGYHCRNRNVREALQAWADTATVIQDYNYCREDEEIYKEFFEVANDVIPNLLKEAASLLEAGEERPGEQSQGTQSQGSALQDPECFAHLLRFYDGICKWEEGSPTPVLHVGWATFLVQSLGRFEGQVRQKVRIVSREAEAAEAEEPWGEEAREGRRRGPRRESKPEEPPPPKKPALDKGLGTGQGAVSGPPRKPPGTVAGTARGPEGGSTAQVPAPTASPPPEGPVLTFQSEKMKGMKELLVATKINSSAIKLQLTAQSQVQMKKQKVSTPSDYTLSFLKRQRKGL
pIC50: −log10 of the molar value.
The threshold is inclusive: pIC50 of exactly 8 counts as MET; values below receive NOT MET.

The examples below pair each entry with its known result.
compound="CCN(C(=O)c1cc(F)ccc1-c1cc(C2CN([C@H](CN3CCN(C[C@H](O)CO)CC3)C(C)C)C2)cn2c(C)ncc12)C(C)C [Example 428]" target_or_system="Menin-MLL (Homo sapiens, UniProt O00255)" answer_label=MET
compound="CCN(C(=O)c1cc(F)ccc1-c1cc(C2CCN(C[C@H]3CC[C@H](N4CCOC4=O)CC3)C2)cn2cncc12)C(C)C (stereo partly shown) [Example 47]" target_or_system="Menin-MLL (Homo sapiens, UniProt O00255)" answer_label="NOT MET"
compound="CCNC(=O)N1CCC(CN2CC(c3cc(-c4ccc(F)cc4C(=O)N(CC)C(C)C)c4cnc(C)n4c3)C2)CC1 [Example 290]" target_or_system="Menin-MLL (Homo sapiens, UniProt O00255)" answer_label=MET
compound="Cc1ncc2c(-c3ccc(F)cc3C(=O)N(C)C(C)C)cc(C3CN([C@@H](CCCN4CCN(CCO)CC4)C(C)C)C3)cn12 [Example 448-1]" target_or_system="Menin-MLL (Homo sapiens, UniProt O00255)" answer_label="NOT MET"

Record CCN(C(=O)c1cc(F)ccc1-c1cc(C2CN([C@H](CCCN3CCN(CCOC)CC3)C(C)C)C2)cn2c(C)ncc12)C(C)C [Example 497] ; criterion: pIC50 no lower than 8. Met? MET

Same question for CCN(C(=O)c1cc(F)ccc1-c1cc(C2CN(C(CCCN3C[C@H]4C[C@@H]3CO4)C3(C)COC3)C2)cn2c(C)ncc12)C(C)C (stereo partly shown) [Example 485] please. NOT MET

Same question for Cc1nc(F)c2c(-c3ccc(F)cc3C(=O)N3CCOC[C@H]3C)cc(C3CN(CC4CCN(C(=O)N(C)C)CC4)C3)cn12 [Example 246] please. NOT MET

Same question for CCN(C(=O)c1cc(F)ccc1-c1cc(C2CN([C@H](CCCN3CCN(CCF)CC3)C(C)C)C2)cn2c(C)ncc12)C(C)C [Example 395] please. MET

====

Reported pIC50 values for a set of molecules
test system: MV-4-11 (carrying MLL-AF4); assay: Inhibition of proliferation of human tumor cells (Alamar Blue, 7 days), MV-4-11; type: cell-based; conditions: Homo sapiens, MV4-11, 168 h, MV-4-11 cells (carrying MLL-AF4), method calls the value GI50
Keep it numeric: pIC50 is minus log10 of the concentration in mol/L.

Use these answered entries as a reference point.
molecule="Cc1nc(F)c2c(-c3ccc(F)cc3C(=O)N3CCOC[C@H]3C)cc(C3CN([C@H](CN4CCN(C)CC4)C(C)C)C3)cn12 [Example 368-2]" reported_metric=pIC50 test_value=8.30
molecule="COCCN(C)CCC[C@H](C(C)C)N1CC(c2cc(-c3ccc(F)cc3C(=O)N3CCOC[C@H]3C)c3c(F)nc(C)n3c2)C1 [Example 200-1]" reported_metric=pIC50 test_value=8.49

# ---- query molecule ----
For CCN(C(=O)c1cc(F)ccc1-c1cc(C2CN(C[C@H]3CC[C@H](NS(=O)(=O)CC)CC3)C2)cn2c(C)nc(F)c12)C(C)C [Example 137] , what is its reported pIC50? 8.33

====

tested on: MV-4-11 (carrying MLL-AF4); test: Inhibition of proliferation of human tumor cells (Alamar Blue, 7 days), MV-4-11; type: cell-based; conditions: Homo sapiens, MV4-11, 168 h, MV-4-11 cells (carrying MLL-AF4), method calls the value GI50
Mark 1 for IC50 under 7 nM, 0 if at or over.

compound="CCN(C(=O)c1cc(F)ccc1-c1cc(C2CN(C(=O)C3NC4CCC3CC4)C2)cn2c(C)ncc12)C(C)C (stereo not shown) [Example 90]" answer_label=0
compound="CCS(=O)(=O)N[C@H]1CC[C@H](CN2CC(c3cc(-c4ccc(F)cc4C(=O)N(CC(F)F)C(C)C)c4cnc(C)n4c3)C2)CC1 [Example 138]" answer_label=1
compound="CNC(=O)N1CCC(CN2CC(c3cc(-c4ccc(F)cc4C(=O)N4[C@H](C)COC[C@H]4C)c4c(F)nc(C)n4c3)C2)CC1 [Example 222]" answer_label=1

IC50 strictly < 7 nM for this compound? Cc1nc(F)c2c(-c3ccc(F)cc3C(=O)N3CCOC[C@H]3C)cc(C3CN(CC4CCN(C(=O)CC#N)CC4)C3)cn12 [Example 249] 0

Same question for CCN(C(=O)c1cc(F)ccc1-c1cc(CC2CN([C@H](CCCN(C)CCOC)C(C)C)C2)n2c(C)cncc12)C(C)C [Example 296-1] please. 1

Same question for Cc1ncc2c(-c3ccc(F)cc3C(=O)N(CC(F)F)C(C)C)cc(C3CN(C(=O)[C@@H]4CCCCN4)C3)cn12 [Example 133] please. 0

Same question for Cc1nc(F)c2c(-c3ccc(F)cc3C(=O)N3[C@H](C)COC[C@H]3C)cc(C3CN(CC4CCN(C(=O)C5(O)CC5)CC4)C3)cn12 [Example 214] please. 0

Same question for CNCCCC(C(C)C)N1CC(c2cc(-c3ccc(F)cc3C(=O)N(CC(F)F)C(C)C)c3c(F)nc(C)n3c2)C1 (stereo not shown) [Example 141] please. 1

Same question for Cc1nc(F)c2c(-c3ccc(F)cc3C(=O)N3CCOC[C@H]3C)cc(C3CN([C@H](CO[C@H]4CCCN(C)C4)C(C)C)C3)cn12 [Example 321-2] please. 1

Same question for CCN(C(=O)c1cc(F)ccc1-c1cc(C2(F)CCN(C[C@H]3CC[C@H](NS(=O)(=O)CC)CC3)C2)cn2c(C)ncc12)C(C)C (stereo partly shown) [Example 73] please. 0

Same question for CCN(C(=O)c1cc(F)ccc1-c1cc(C2CN([C@H](CCCN3CCN(C(C)=O)CC3)C(C)C)C2)cn2c(C)ncc12)C(C)C [Example 311-2] please. 1

====

Reported IC50 values for a set of molecules
target: Menin-MLL (Homo sapiens, UniProt O00255); construct: His-Menin (M1-L615 end); purchased BIORTUS BP9210; assay: Inhibitory activity against Menin-MLL binding (fluorescence polarization); conditions: Menin-MLL IC50, fluorescence polarization; 150 nM His-Menin, 15 nM FITC-MLL; 25°C for 60 min
Write the answer as a number in nM, unit excluded.

Menin-MLL (Homo sapiens, UniProt O00255) / IC50 / `CCN(C(=O)c1cc(F)ccc1-c1cc(C2CN([C@H](CCCN3CCN(C4(CO)COC4)CC3)C(C)C)C2)cn2c(C)ncc12)C(C)C` : value? 0.9

Same question for `CCN(C(=O)c1cc(F)ccc1-c1cc([C@H]2CCN(C[C@H]3CC[C@H](NS(=O)(=O)CC)CC3)C2)cn2cncc12)C(C)C` please. 23

Same question for CCN(C(=O)c1cc(F)ccc1-c1cc(C2CCN(C[C@H]3CC[C@H](NS(=O)(=O)CC)CC3)C2)cc2c1cnn2C)C(C)C (stereo partly shown) please. 11.5

Same question for CCN(C(=O)c1cc(F)ccc1-c1cc(N2CCN(C(=O)C3NC4CCC3CC4)CC2)cn2c(C)ncc12)C(C)C (stereo not shown) please. 23

====

tested on: MV-4-11 (carrying MLL-AF4); assay: Inhibition of proliferation of human tumor cells (Alamar Blue, 7 days), MV-4-11; format: cell-based; details: Homo sapiens, MV4-11, 168 h, MV-4-11 cells (carrying MLL-AF4), method calls the value GI50
Reported IC50 values for a set of compounds
Write the answer as a number in nM, unit excluded.

Use these answered entries as a reference point.
molecule=CCNC(=O)N1CCC(CN2CC(c3cc(-c4ccc(F)cc4C(=O)N4CCOC[C@H]4C)c4c(F)nc(C)n4c3)C2)CC1 reported_metric=IC50 test_value=9.6
molecule=Cc1ncc2c(-c3ccc(F)cc3C(=O)N3CCOC[C@H]3C)cc(C3CN([C@H](CCCN4CCN(C)CC4)C(C)C)C3)cn12 reported_metric=IC50 test_value=2.4

For `CCS(=O)(=O)N[C@@H]1CC[C@@H](CN2CC(c3cc(-c4ccc(F)cc4C(=O)N(CC(F)F)C(C)C)c4cnc(C)n4c3)C2)OC1` , what is its reported IC50? 21

Same question for `Cc1nc(F)c2c(-c3ccc(F)cc3C(=O)N3[C@H](C)COC[C@H]3C)cc(C3CN(CC4CCN(C(=O)C5COC5)CC4)C3)cn12` please. 22
